# measurementTarget: BRD4 (BDII_E352-M457) (Homo sapiens, UniProt O60885)
# Construct: proliferation; Protocol
# protocolSummary: TR-FRET bromodomain binding assay, second bromodomain of BRD4
# assaySetup: His-tagged BD2, 30 nM Alexa647 probe; TR-FRET protocol A-E given per row
pKi: −log10 of the molar value.
attributeMeasured: pKi

Here is how some compounds turned out for pKi.
CCS(=O)(=O)Nc1ccc(Oc2ccc(F)cc2F)c(-c2cn(C)c3c(=O)[nH]c(C(=O)N4CCOCC4)cc23)c1 [Example 191]
7.26
CCS(=O)(=O)Nc1ccc(Oc2ccc(F)cc2F)c(-c2cn(C)c3c(=O)[nH]c(C(=O)NC)cc23)c1 [Example 200]
8.34
Cn1cc(-c2cc(CS(=O)(=O)N3CCOCC3)ccc2Oc2ccc(F)cc2F)c2cc[nH]c(=O)c21 [Example 95]
8.68
Cn1cc(-c2cc(S(C)(=O)=O)ccc2OCCC(C)(C)C)c2cc[nH]c(=O)c21 [Example 40]
7.19

(1) Cn1cc(-c2cc(CN3CCC(N)CC3)ccc2Oc2ccc(F)cc2F)c2cc[nH]c(=O)c21 [Example 111]
(2) CCS(=O)(=O)Nc1ccc(Oc2ccc(F)cc2F)c(-c2cn(C)c3c(=O)[nH]c(C(=O)NCCN(C)C)cc23)c1 [Example 188]
(3) Cn1cc(-c2cc(S(C)(=O)=O)ccc2O[C@H]2CC[C@H](O)CC2)c2cc[nH]c(=O)c21 [Example 34]
# input Arrange the 3 compounds by rising pKi, starting with the smallest. Present the labels in the sequence the task asks for.
# output 1, 3, 2
(1: 6.47, 3: 7.54, 2: 7.87)
